TESTED TARGET: Cytochrome P450 2C9 (Homo sapiens) (UniProt P11712)
Sequence (P11712 whole entry, looked up): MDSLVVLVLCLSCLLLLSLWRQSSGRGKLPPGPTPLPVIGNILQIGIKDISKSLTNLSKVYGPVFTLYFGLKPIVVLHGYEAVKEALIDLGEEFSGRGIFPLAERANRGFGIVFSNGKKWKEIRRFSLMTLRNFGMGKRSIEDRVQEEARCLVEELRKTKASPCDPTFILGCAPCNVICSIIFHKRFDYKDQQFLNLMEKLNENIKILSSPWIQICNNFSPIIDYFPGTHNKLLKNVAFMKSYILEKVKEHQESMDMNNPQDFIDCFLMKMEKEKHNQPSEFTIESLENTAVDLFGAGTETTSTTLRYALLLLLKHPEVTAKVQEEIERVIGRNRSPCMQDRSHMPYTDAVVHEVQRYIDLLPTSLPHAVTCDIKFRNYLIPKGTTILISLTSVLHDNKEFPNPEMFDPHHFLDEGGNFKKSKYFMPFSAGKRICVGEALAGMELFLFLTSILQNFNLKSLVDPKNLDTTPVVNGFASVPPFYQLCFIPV
PROTOCOL: qHTS Assay for Inhibitors and Substrates of Cytochrome P450 2C9 (AID 883); note: nearly all actives have a fitted effect of over 60% in size
CONDITION CONTEXT: recombinant CYP2C9, luciferin-H luminescence, 60 min; series mostly up to 57.1 µM
Results filed as inconclusive are left out. Active and inactive are the calls of the source. Calls come from the whole dose curve; as a rule, active = well fitted inhibition curve with a large enough effect; inconclusive = small, poorly fitted or top-dose-only effect; inactive = no such curve, though single readings can be large or run the other way.
In this exercise, the only acceptable responses are class 1 for active, class 0 for inactive

I would be grateful if you could indicate the recorded call for Nc1ccc2c3c(cccc13)C(=O)NC2=O .
class 0

How was O=c1[nH]ccc2c(O)cccc12 classified in this test?
class 0

Query compound follows.
In this assay, the call recorded for CNc1cc(NS(=O)(=O)c2ccc(N)cc2)nc(NC)n1 was what?
class 1
